assay: FIGHT-102 pemigatinib plasma/urine pharmacokinetics (noncompartmental); settings: human, in vivo, 13.5 mg, AUC0-24h, geometric mean (CV%), C1D1, 13.5 mg ID or CD, n 36
Quantity: AUC(0-t) (µM·h)
Give just the number in µM·h; leave the unit off.

Query CCN1C(=O)N(c2c(F)c(OC)cc(OC)c2F)Cc2cnc3[nH]c(CN4CCOCC4)cc3c21 yields AUC(0-t) of 1.88

====

experiment: clinical; settings: human, in vivo, 9 mg, AUCss,0-24h, geometric mean (CV%)
Quantity: AUC
A complete answer gives the number followed by the unit.

Query CCN1C(=O)N(c2c(F)c(OC)cc(OC)c2F)Cc2cnc3[nH]c(CN4CCOCC4)cc3c21 yields AUC of 2.05 µM·h
